Quick record of IC50 values for UniProtKB P24941.
Answers are plain numbers, in nM.

Consider the following illustrative entries.
O=S(=O)(NCCO)c1ccc(Nc2nc(Nc3ccc(S(=O)(=O)NCCO)cc3)c3cnoc3n2)cc1 = 9180
NS(=O)(=O)c1ccc(Nc2nc(Nc3ccc(S(N)(=O)=O)cc3)c3cnoc3n2)cc1 = 443
CC(=O)n1ncc2c(Nc3ccc(S(=O)(=O)NCCO)cc3)nc(Nc3ccc(S(=O)(=O)NCCO)cc3)nc21 = 533
O=S(=O)(NCCO)c1ccc(Nc2nc(Nc3ccc(S(=O)(=O)NCCO)cc3)c3cn[nH]c3n2)cc1 = 18

In the following, a different compound is considered.
q: Look at this compound and give its reported IC50. `O=S(=O)(NCCO)c1ccc(Nc2nc(Nc3ccc4[nH]ncc4c3)c3cn[nH]c3n2)cc1`
a: 139

###

Would you mind telling me the reported pIC50 of each entry?
Target: CDK1 (Homo sapiens)
Construct: purchased New England Biolabs, Beverly, Mass; 6020; host or cells: insect cells
Sequence (P06493 whole entry): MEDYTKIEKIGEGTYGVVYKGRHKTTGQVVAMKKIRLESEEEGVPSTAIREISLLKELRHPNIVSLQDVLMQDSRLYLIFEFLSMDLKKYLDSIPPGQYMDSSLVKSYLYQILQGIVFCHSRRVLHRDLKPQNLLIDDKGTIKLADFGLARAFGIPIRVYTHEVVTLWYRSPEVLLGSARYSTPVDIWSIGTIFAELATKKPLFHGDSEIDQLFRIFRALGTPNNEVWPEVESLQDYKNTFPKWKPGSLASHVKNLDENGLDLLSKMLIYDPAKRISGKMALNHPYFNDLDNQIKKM
Sequence (P14635 whole entry partner): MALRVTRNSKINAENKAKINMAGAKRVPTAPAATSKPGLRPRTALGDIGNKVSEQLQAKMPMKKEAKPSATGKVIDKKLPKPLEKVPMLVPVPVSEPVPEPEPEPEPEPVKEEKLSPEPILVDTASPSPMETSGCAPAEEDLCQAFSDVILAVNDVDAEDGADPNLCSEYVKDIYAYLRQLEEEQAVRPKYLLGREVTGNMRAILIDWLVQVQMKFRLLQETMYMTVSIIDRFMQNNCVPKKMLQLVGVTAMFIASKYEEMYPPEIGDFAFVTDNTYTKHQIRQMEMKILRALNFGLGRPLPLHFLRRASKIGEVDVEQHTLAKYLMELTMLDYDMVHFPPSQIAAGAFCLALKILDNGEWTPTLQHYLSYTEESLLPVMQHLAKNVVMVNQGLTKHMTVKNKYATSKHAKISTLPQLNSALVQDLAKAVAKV
Assay: CDK-1 screening assay
Assay type: biochemical
Give bare numbers, as −log10 of the molar value.

c1cc2cc(Nc3nc(Nc4ccc5[nH]ccc5c4)c4cn[nH]c4n3)ccc2[nH]1 [Cpd 13] = 5.59

Give pIC50 for all compounds that follow.
1. CC(=O)n1ncc2c(Nc3ccc(S(=O)(=O)NCCO)cc3)nc(Nc3ccc(S(=O)(=O)NCCO)cc3)nc21 [Cpd 21]
2. O=S(=O)(NCCO)c1ccc(Nc2nc(Nc3ccc(C(F)(F)F)cc3)c3cn[nH]c3n2)cc1 [Cpd 10]
3. O=S(=O)(NCCO)c1ccc(Nc2nc(OCC3CCCCC3)c3cn[nH]c3n2)cc1 [Cpd 26]
4. NS(=O)(=O)c1ccc(Nc2nc(Nc3ccccc3)nc3[nH]ncc23)cc1 [Cpd 6]

a:
1. 5.73
2. 5.82
3. 6.57
4. 5.63

###

Biological target: EGFR (Homo sapiens)
Construct: intracellular portion of EGFR started at nucleotide 2189 (corresponding to amino acid 667) and ended at the termination codon; made in house; host or cells: Sf9 insect cells (baculovirus)
Sequence (P00533 669-1210 limits assumed): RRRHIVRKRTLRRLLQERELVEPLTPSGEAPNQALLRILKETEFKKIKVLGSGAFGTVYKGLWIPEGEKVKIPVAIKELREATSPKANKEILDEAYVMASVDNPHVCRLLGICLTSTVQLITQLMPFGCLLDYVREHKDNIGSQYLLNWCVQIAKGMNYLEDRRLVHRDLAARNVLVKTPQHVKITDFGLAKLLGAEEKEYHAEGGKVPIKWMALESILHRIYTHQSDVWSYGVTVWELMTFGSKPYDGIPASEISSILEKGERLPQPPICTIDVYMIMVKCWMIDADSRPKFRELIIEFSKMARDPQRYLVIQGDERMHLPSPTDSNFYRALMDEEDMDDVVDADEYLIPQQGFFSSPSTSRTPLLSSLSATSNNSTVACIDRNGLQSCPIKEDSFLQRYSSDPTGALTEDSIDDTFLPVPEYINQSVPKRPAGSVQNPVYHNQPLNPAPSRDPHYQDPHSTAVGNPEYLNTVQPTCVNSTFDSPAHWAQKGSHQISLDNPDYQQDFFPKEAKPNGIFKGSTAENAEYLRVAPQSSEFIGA
Test: EGFR Kinase Assay
Type: biochemical
Details: test concentration of 2 μM
Provide the recorded inhibition at 2 µM for the entries that follow.
Give bare numbers, in %.

NS(=O)(=O)c1ccc(Nc2nc(Nc3ccccn3)c3cn[nH]c3n2)cc1 = 25

List reported inhibition at 2 µM for each of these compounds:
1. CC(=O)n1ncc2c(Nc3ccc(S(=O)(=O)NCCO)cc3)nc(Nc3ccc(S(=O)(=O)NCCO)cc3)nc21
2. O=S(=O)(NCCO)c1ccc(Nc2nc(Nc3ccc(S(=O)(=O)NCCO)cc3)c3cnn(C4CCCCC4)c3n2)cc1
3. NS(=O)(=O)c1cccc(Nc2nc(Nc3cccc(S(N)(=O)=O)c3)c3cn[nH]c3n2)c1

a:
53
22
66.7

###

Target: EGFR (Homo sapiens)
Construct: intracellular portion of EGFR started at nucleotide 2189 (corresponding to amino acid 667) and ended at the termination codon; made in house; host or cells: Sf9 insect cells (baculovirus)
Assay: EGFR Kinase Assay
Assay type: biochemical
Settings: test concentration of 2 μM
For each of the compounds below, state its inhibition at 2 µM.
Numbers only, in %.

NS(=O)(=O)c1ccc(Nc2nc(Nc3ccccn3)c3cnoc3n2)cc1 = 21

Please give inhibition at 2 µM, item by item, for the list that follows.
1. NS(=O)(=O)c1ccc(Nc2nc(Nc3ccc4[nH]ncc4c3)nc3[nH]ncc23)cc1
2. NS(=O)(=O)c1ccc(Nc2nc(Nc3ccc(S(N)(=O)=O)cc3)c3cnoc3n2)cc1

a:
44
39

Answer for every listed entry: what is its inhibition at 2 µM? The entries follow.
1. c1cc2cc(Nc3nc(Nc4ccc5[nH]ccc5c4)c4cn[nH]c4n3)ccc2[nH]1
2. O=S(=O)(NCCO)c1ccc(Nc2nc(Nc3ccccc3)c3cnoc3n2)cc1
3. O=S(=O)(NCCO)c1ccc(Nc2nc(Nc3ccc(C(F)(F)F)cc3)c3cn[nH]c3n2)cc1
4. CC(C)(C)n1ncc2c(Nc3ccc(S(=O)(=O)NCCO)cc3)nc(Nc3ccc(S(=O)(=O)NCCO)cc3)nc21
5. c1cc2[nH]ncc2cc1Nc1nc(Nc2ccc3[nH]ncc3c2)c2cn[nH]c2n1

a:
-4
26
31
23
47
